Assay: Therapeutic index
Conditions: read-out: Therapeutic index
Binary call on selectivity ratio with cut-off 50: strictly below means 1 (yes), and equality or higher means 0 (no).

Would you please look over these solved cases?
Q: Say whether its selectivity ratio is strictly beneath 50. Entry: `COc1cccc(CN2CCNC(=O)c3sc4ccc(OC)cc4c32)c1`
Ans: 0 (no)

Q: Say whether its selectivity ratio is strictly beneath 50. Entry: `COc1ccc2sc3c(c2c1)N[C@H](Cc1ccccc1)CNC3=O`
Ans: 1 (yes)

Q: Say whether its selectivity ratio is strictly beneath 50. Entry: `COc1ccc2sc3c(c2c1)N[C@@H](C)CNC3=O`
Ans: 1 (yes)

Q: Say whether its selectivity ratio is strictly beneath 50. Entry: `COc1cccc(CN2C[C@H](C)NC(=O)c3sc4ccc(OC)cc4c32)c1`
Ans: 0 (no)

Q: Say whether its selectivity ratio is strictly beneath 50. Entry: `COc1cccc(CN2C[C@@H](C)NC(=O)c3sc4ccc(OC)cc4c32)c1`
Ans: 0 (no)

Shift focus to the following entry.
Q: Say whether its selectivity ratio is strictly beneath 50. Entry: `COc1ccc2sc3c(c2c1)N(Cc1ccccc1C)CCNC3=O`
Ans: 0 (no)

###

Experiment: Toxic concentration against uninfected cells and their ability to generate XTT formazan
Assay type: ADME, cell-based
Conditions: read-out: TC50 (the source's name)
Binary call on CC50 with cut-off 10 µM: strictly below means yes (1), and equality or higher means no (0).

Q: Say whether its CC50 is strictly beneath 10 µM. Entry: `COc1ccc2sc3c(c2c1)NC[C@H](Cc1ccccc1)NC3=O`
Ans: yes (1)

Q: Say whether its CC50 is strictly beneath 10 µM. Entry: `COc1ccc2sc3c(c2c1)N(Cc1ccccc1C)CCNC3=O`
Ans: no (0)

Next:
Q: Say whether its CC50 is strictly beneath 10 µM. Entry: `COc1ccc2sc3c(c2c1)N(Cc1cccc([N+](=O)[O-])c1)CCNC3=O`
Ans: no (0)

###

CC50: recorded values
Test: Toxic concentration against uninfected cells and their ability to generate XTT formazan
Assay type: ADME, cell-based
Conditions: read-out: TC50 (the source's name)
Value expressed in µM; do not type the unit.

Example compounds with recorded CC50:
Q: What value of CC50 has been recorded for this entry: `COc1ccc2sc3c(c2c1)N(C)CCNC3=O`
Ans: 12.5

Q: What value of CC50 has been recorded for this entry: `COc1ccc2sc3c(c2c1)N(Cc1ccc([N+](=O)[O-])cc1)CCNC3=O`
Ans: 25

Q: What value of CC50 has been recorded for this entry: `COc1ccc2sc3c(c2c1)NC[C@H](C)NC3=O`
Ans: 6

Q: What value of CC50 has been recorded for this entry: `COc1ccc2sc3c(c2c1)NC[C@@H](Cc1ccccc1)NC3=O`
Ans: 10

Next:
Q: What value of CC50 has been recorded for this entry: `COc1cccc(CN2CCNC(=O)c3sc4ccc(OC)cc4c32)c1`
Ans: 10

Q: What value of CC50 has been recorded for this entry: `COc1ccc2sc3c(c2c1)N(Cc1cccc(Cl)c1)CCNC3=O`
Ans: 20

Q: What value of CC50 has been recorded for this entry: `COc1ccc2sc3c(c2c1)N(Cc1ccccc1)CCNC3=O`
Ans: 8

Q: What value of CC50 has been recorded for this entry: `COc1cccc(CN2C[C@H](C)NC(=O)c3sc4ccc(OC)cc4c32)c1`
Ans: 11

Q: What value of CC50 has been recorded for this entry: `COc1ccc2sc3c(c2c1)SCCNC3=O`
Ans: 7.6

Q: What value of CC50 has been recorded for this entry: `COc1ccc2sc3c(c2c1)OCCNC3=O`
Ans: 13.1

Q: What value of CC50 has been recorded for this entry: `COc1cccc(CN2C[C@@H](Cc3ccccc3)NC(=O)c3sc4ccc(OC)cc4c32)c1`
Ans: 4
